FYI, the data here is from ChEMBL document CHEMBL1201862.

- Test system: UO-31
- method: NCI tumour cell line growth inhibition, 48 h
The source made the active and inactive calls. Cut-off read from the data, not from the text of the source: active = GI50 up to about 1.1 µM and inactive = higher.
property_measured: GI50

>>> print(df.to_string())
                                    molecule             reported
 0     Cc1ccc2nc(N/N=C/c3cccc(C)n3)cc(C)c2c1   19.7 µM (inactive)
 1                       N#C/C(N)=N/c1ccccc1  > 100 µM (inactive)
 2  O=C1C(=C2SC(c3ccccc3)(c3ccccc3)c3ccccc32)C(=O)c2ccccc21  > 100 µM (inactive)
 3  O=c1c2cc(Br)cc(Br)c2[nH]c(=S)n1-c1ccc(/N=N/c2ccc(O)c3cccnc23)cc1   34.9 µM (inactive)
 4  CN1N=C2c3ccccc3CC[C@H]2C1c1ccccc1 (stereo partly specified)   19.4 µM (inactive)
 5  Cc1ccc(C(=O)O)c(/C=C2\Cc3cc(C)cc(C)c3C2=O)c1   92.3 µM (inactive)
 6  C/C(=N\Nc1nc2ccccc2[nH]1)c1cccc[n+]1[O-]   64.6 µM (inactive)
 7  O=C(CSc1nnc(-c2ccc(/N=C\c3ccc(Cl)cc3)cc2)o1)Nc1ccccc1Cl  > 100 µM (inactive)
 8  COC(=O)Nc1nc2cc(S(=O)(=O)N3CCOCC3)ccc2[nH]1  > 100 µM (inactive)
 9                              Nc1nnc(N)n1N  > 100 µM (inactive)
10            N#C/C(=C\c1ccc(O)c(O)c1)C(N)=S   98.9 µM (inactive)

---

- System: UACC-257
- method: NCI tumour cell line growth inhibition, 48 h
Active and inactive are the calls of the source. Rule as the data show it: active = GI50 up to about 1.1 µM and inactive = higher.
property_measured: GI50

                                   molecule  target_or_test_system             reported
0  C=C1C(=O)c2cc3c(cc2C(c2cc(OC)c(OC)c(OC)c2)[C@@H]1C(=O)O)OCO3 (stereo not given in full)               UACC-257     67 µM (inactive)
1              O=c1oc2ccccc2c2nc3ccccc3cc12               UACC-257   96.6 µM (inactive)
2  COc1ccc(-c2c(/C=N/OCC(=O)O)c3sc4ccccc4n3c2/C=N/OCC(=O)O)cc1               UACC-257   > 50 µM (inactive)
3  Nc1nc(N)c2cc(Sc3ccc4nc(N)nc(N)c4c3)ccc2n1               UACC-257  > 100 µM (inactive)
4  O=C1C2=Cc3ccccc3OC2(O)Oc2cc(O)cc(O)c21 (stereo not given)               UACC-257  > 100 µM (inactive)
5  O=C(Cc1ccccc1)NN1C(=O)C(Cl)C1c1ccc([N+](=O)[O-])cc1 (stereo not given)               UACC-257   76.4 µM (inactive)
6  CCOC(=O)[C@H]1C[C@]23CN(C(=O)OC(C)(C)C)CC[C@H]2CCC2(SCCCS2)[C@@H]3N1C               UACC-257   25.6 µM (inactive)
7  CCCc1c(O)c(=O)c2c(OC)cc(OC)c3c4c(OC)cc(OC)c5c(=O)c(O)c(CCC)c(c1c23)c54               UACC-257   1.15 µM (inactive)
8                 NC1(c2cc3ccccc3s2)CCCCCC1               UACC-257   16.3 µM (inactive)
9  Cc1c2cnccc2c(C)c2c1c1ccccc1n2CCOC(=O)c1ccccc1               UACC-257   12.4 µM (inactive)

---

Recorded GI50 for the following molecules
- Tested on: CAKI-1
- method: NCI tumour cell line growth inhibition, 48 h
Calls of active or inactive are those of the source. Cut-off read from the data, not from the text of the source: active = GI50 up to about 1.1 µM and inactive = higher.
property_measured: GI50

>>> df
                                   molecule             reported
0  C=C1C(=O)c2cc3c(cc2C(c2cc(OC)c(OC)c(OC)c2)[C@@H]1C(=O)O)OCO3 (stereo not given in full)   54.2 µM (inactive)
1           O=C(O)c1ccc(Cc2ccccc2C(=O)O)cc1  > 100 µM (inactive)
2                 C#CCOC(=O)c1ccccc1OC(C)=O  > 100 µM (inactive)
3  COC(=O)[C@@H]1O[C@]12[C@@H](CO[Si](C)(C)C(C)(C)C)O[C@@H](n1cc(C)c(=O)[nH]c1=O)[C@@H]2O[Si](C)(C)C(C)(C)C   23.4 µM (inactive)
4  CN(C)CC1CCCC(CN2CCCCC2)C1=O (stereo not given)   1.53 µM (inactive)
5  O=C(Nc1ccc2cc3ccccc3cc2c1)c1cc2c(cc1Cl)Sc1nccn1S2(=O)=O  > 100 µM (inactive)
6  Cc1cccc(C(C)C)c1N1C(=O)C(=O)C(c2nc3ccccc3o2)C(=O)C1=O  > 100 µM (inactive)
7  Cc1c(C(=O)CC(=O)C(=O)Nc2ccccc2C(F)(F)F)[n+]([O-])c2ccccc2[n+]1[O-]   26.7 µM (inactive)
8  CN(C)CCNC(=O)c1cccc2[nH]c(-c3ccccc3)nc12   24.7 µM (inactive)
9  O=C1C(=C2SC(c3ccccc3)(c3ccccc3)c3ccccc32)C(=O)c2ccccc21  > 100 µM (inactive)

---

- Test system: T47D
- method: NCI tumour cell line growth inhibition, 48 h
Activity calls are given as the source filed them. No stated cut-off is given here; in the data, active = GI50 up to about 1.1 µM and inactive = higher.
property_measured: GI50

molecule	reported
Nc1ccccc1/N=C/c1cc2cc([N+](=O)[O-])ccc2s1	4.13 µM (inactive)
COP(=O)(OC)c1ccc(NCc2cc(O)ccc2O)cc1	28.8 µM (inactive)
O=C(NCCNCCO)N/N=C/c1ccc(Cl)cc1	> 100 µM (inactive)
COc1ccc(/C=C(/c2ccc(OC)cc2)c2c(Cl)cc(Cl)c(/C(=C\c3ccc(OC)cc3)c3ccc(OC)cc3)c2/N=N/c2ccccc2)cc1	> 100 µM (inactive)
CNC(=S)N/N=C(\C)c1ccc(OC)cc1O	> 100 µM (inactive)
NC1CC(=O)c2cc(Br)sc21 (stereo not given)	> 100 µM (inactive)
O=C(O)C1Cc2ccccc2OC1=O (stereo not given)	> 100 µM (inactive)
CN(C(=O)Cc1ccc(Cl)c(Cl)c1)[C@@H]1CCCC[C@H]1[N+]1(C)CC=CC1	> 100 µM (inactive)
Cc1cc(C)nc(NS(=O)(=O)c2ccc(Nc3c4ccccc4nc4c(C(=O)NCCO)cccc34)cc2)n1	25.9 µM (inactive)
CCOC(=O)c1nc2cc(C(F)(F)F)ccc2nc1Nc1ccc(Cl)c(Cl)c1	> 100 µM (inactive)
CC12OC(=O)[C@@]3(O)CCC4C(C[C@H]5O[C@]56CC=CC(=O)[C@]46C)C45OC[C@H]6C(=O)O[C@@H]1C[C@@]6(C)[C@H](C4=O)C23O5 (stereo not given in full)	1.36 µM (inactive)
CC(C)=CC[C@H]1C[C@]2(CC=C(C)C)C(=O)[C@@](CC=C(C)C)(C(=O)C(C(=O)c3ccccc3)=C2O)C1(C)C [6-EPI-CLUSIANONE]	5.2 µM (inactive)
CC1CC(c2ccccc2)Nc2nc3ccccc3n21 (stereo not given)	> 100 µM (inactive)
C[N+]1(C)C2CC(OC(=O)C(CO)c3ccccc3)CC1C1OC12 (stereo not given)	> 100 µM (inactive)
COc1ccc(C2C(C#N)=C(S)N(C3OC(CO)C(O)C(O)C3O)C(c3ccccc3)=C2C(C)=O)cc1 (stereo not given)	6.18 µM (inactive)

---

Recorded GI50 for the following molecules
- Tested on: SK-OV-3
- method: NCI tumour cell line growth inhibition, 48 h
The source made the active and inactive calls. No stated cut-off is given here; in the data, active = GI50 up to about 1.1 µM and inactive = higher.

molecule	GI50
Cn1c(-c2ccc[se]2)ccc1-c1ccc(CO)[se]1	17.1 µM (inactive)
CN(C(=O)C12C3C4C1C1C4(C(=O)C45C6C7C4C4C5C6C74C)C3C12C)C(C)(C)C (centres undefined)	90.4 µM (inactive)
C=C1CCC[C@@H](C)C(O)[C@@H]2OC(=O)C(=C)[C@@H]2C[C@@H](OC(C)=O)[C@@]2(C)CC[C@@H]1O2 (some centres undefined)	10.8 µM (inactive)
Cc1cc2c(c(C#N)c1C)NC(=O)C(CC(=O)O)C2=O (centres undefined)	> 100 µM (inactive)
O=P(Oc1ccccc1)(Oc1ccccc1)Oc1c[nH]c2ccccc12	3.44 µM (inactive)
CC12OC(=O)[C@@]3(O)CCC4C(C[C@H]5O[C@]56CC=CC(=O)[C@]46C)C45OC[C@H]6C(=O)O[C@@H]1C[C@@]6(C)[C@H](C4=O)C23O5 (some centres undefined)	5.53 µM (inactive)
Cc1csc(NCc2ccc(Cl)cc2)n1	> 100 µM (inactive)
Cc1ccc(NC(=O)CC2SC(Nc3ccc(Cl)cc3)=NC2=O)cc1C (centres undefined)	> 49 µM (inactive)
C[C@]12CC[C@@H]3c4ccc(O)cc4CC[C@H]3[C@@H]1C/C(=C\c1ccncc1)C2=O	35.1 µM (inactive)
